These measurements were taken from PubChem BioAssay (NCI).

Please provide measured TGI for the entries that follow.
Tested on: MDA-MB-435
MEASUREMENT DESCRIPTION: NCI tumour cell line growth inhibition, 48 h

Here's what some known entries look like.
- COMPOUND: "NC(=O)/C(=C/n1cnc(-c2cc(C(F)(F)F)cc(C(F)(F)F)c2)n1)c1cncnc1"
  QUANTITY: "TGI"
  VALUE: "3.89 µM"
- COMPOUND: "COC(=O)c1ccc2c(c1)CC1(C2)Cc2ccccc2C1=O (stereo not given)"
  QUANTITY: "TGI"
  VALUE: "58.5 µM"
- COMPOUND: "COC(=O)c1c(O)ccc2c1c1c(n2Cc2cc(OC)cc(OC)c2)C(=O)c2ccccc2C1=O"
  QUANTITY: "TGI"
  VALUE: "12.9 µM"
- COMPOUND: "NC1=NCN(C2OC(CO)C(O)C2O)C(=O)N1 (stereo not given)"
  QUANTITY: "TGI"
  VALUE: "154 µM"

Alright, here's another compound for you.
Query (compound): CN1CC[C@H](c2c(O)cc(O)c3c(=O)cc(-c4ccccc4Cl)oc23)[C@H](O)C1 ; field requested: TGI
0.26 µM

----------
System: HOP-62 NSCLC
MEASUREMENT DESCRIPTION: NCI tumour cell line growth inhibition, 48 h; in the data active means GI50 below about 0.43 µM; inactive means the rest
Write down one outcome, taken from active, inactive

- MOLECULE: "COc1cc(-c2nn(-c3cccc(NC(=O)CCNc4ccc(N5CCOCC5)cc4)c3)cc2-c2ccncc2)ccc1Cl"
  TESTED SYSTEM: "HOP-62 NSCLC"
  DISCRETE LABEL: "inactive"
- MOLECULE: "COc1ccc(C(O)c2cc3c(N)c(C(=O)Nc4cccc(Br)c4C)sc3nc2C)cc1 (stereo not given)"
  TESTED SYSTEM: "HOP-62 NSCLC"
  DISCRETE LABEL: "active"
- MOLECULE: "CC(=O)Oc1cc2cnc3c4cc(OC(C)=O)c(OC(C)=O)cc4ccc3c2cc1OC(C)=O"
  TESTED SYSTEM: "HOP-62 NSCLC"
  DISCRETE LABEL: "inactive"
- MOLECULE: "COc1ccc2c(c1)C(=O)c1c-2c(OCCN(C)C)nc2cc(OC)c(OC)cc12"
  TESTED SYSTEM: "HOP-62 NSCLC"
  DISCRETE LABEL: "inactive"

Query molecule follows.
How did this test come out for Nn1c(-c2ccc(Cl)cc2)nc2c(-c3ccc(Cl)cc3)nc3ccc(Cl)cc3c2c1=O ?
inactive

----------
System: SK-MEL-5 melanoma
MEASUREMENT DESCRIPTION: NCI tumour cell line growth inhibition, 48 h
Please provide measured TGI for the entries that follow.
Give bare numbers, in µM.

Here's what some known entries look like.
- COMPOUND: "CN1CCC(C(O)(c2ccccc2)c2ccc(Br)cc2)CC1 (stereo not given)"
  READOUT UNIT: "µM"
  TGI: 27.9
- COMPOUND: "Cn1cnnc1[S-].[Au+].c1ccc([PH+](c2ccccc2)c2ccccc2)cc1"
  READOUT UNIT: "µM"
  TGI: 2.91
- COMPOUND: "N#Cc1cc(S(=O)(=O)Nc2nc3cc(Cl)ccc3o2)c(SCc2ccccc2)cc1Cl"
  READOUT UNIT: "µM"
  TGI: 28.3

Alright, here's another compound for you.
Query (compound): Cc1ccc(S(=O)(=O)N/N=C2/CCC3(O)CC2(C)CCC2[C@H]3CC2(C)C)cc1 (stereo not given in full) ; field requested: TGI
33.1

----------
Tested on: ACHN renal
MEASUREMENT DESCRIPTION: NCI tumour cell line growth inhibition, 48 h
QUANTITY: TGI (µM)
Give bare numbers, in µM.

- COMPOUND: "COc1cc(-c2nn(-c3cccc(NC(=O)CCNc4ccc(N5CCOCC5)cc4)c3)cc2-c2ccncc2)ccc1Cl"
  TESTED SYSTEM: "ACHN renal"
  QUANTITY: "TGI"
  READOUT UNIT: "µM"
  VALUE: 41.4

Field: TGI. Fill in for each record below.
1. Cc1ccc(S(=O)(=O)N2CCNCCN(S(=O)(=O)c3ccc(C)cc3)CCNCC2)cc1
2. CCCCCC[C@H]1C(=O)O[C@H](C)[C@H](NC(=O)c2cccc(NC=O)c2OC)C(=O)O[C@@H](C)[C@@H]1OC(=O)CCC (tested in a mixture with another compound)
3. C#C[C@]1(O)CC[C@H]2[C@@H]3CC=C4c5nc(N)sc5CC[C@]4(C)[C@H]3CC[C@@]21C

1: 89.1; 2: 23.1; 3: 30.2

----------
System: OVCAR-3 ovarian
MEASUREMENT DESCRIPTION: NCI tumour cell line growth inhibition, 48 h
Please provide measured log10 of TGI for the entries that follow.
Scale: decimal log of TGI, TGI in µM.

Here's what some known entries look like.
- MOLECULE: "Oc1ccccc1C=Nc1ccc(-c2nc3ccccc3s2)cc1"
  log10 of TGI: 1.94
- MOLECULE: "COc1cccc(/C=N\\NC(=O)C(C)SC(C)C(=O)N/N=C/c2cccc(OC)c2)c1 (stereo not drawn)"
  log10 of TGI: 1.59
- MOLECULE: "C#C[C@]1(O)CC[C@H]2[C@@H]3CC=C4c5nc(N)sc5CC[C@]4(C)[C@H]3CC[C@@]21C"
  log10 of TGI: 0.99

Field: log10 of TGI. Fill in for each record below.
1. CCOC(=O)CCC(NC(=O)c1ccc(NC(OC)c2nc3cc(C(F)(F)F)ccc3nc2-c2ccccc2)cc1)C(=O)OCC (stereo not drawn)
2. O=[N+]([O-])/C(Cl)=C(/C(Cl)=C(Cl)Cl)N1CCOCC1

1. 1.55
2. 0.69

Field: log10 of TGI. Fill in for each record below.
1. CCCCCCCCCCCCCCCC[n+]1ccccc1
2. O=C1Nc2ccc3c(c2/C1=C\c1cc2c(cc1Br)OCO2)OCO3
3. O=[N+]([O-])c1ccc(N=Nc2c(O)[nH]c3ccccc23)c([N+](=O)[O-])c1
4. COc1ccc(C2=Nn3c(nnc3-n3nc(C)cc3C)SC2)cc1
5. Cc1cc(NN=C(c2ccc(O)cc2)c2ccc(O)cc2)c([N+](=O)[O-])cc1[N+](=O)[O-]

0.18
-0.23
1.14
-0.94
1.29

Field: log10 of TGI. Fill in for each record below.
1. Cn1cnnc1[S-].[Au+].c1ccc([PH+](c2ccccc2)c2ccccc2)cc1
2. O=C1c2c(Br)sc(Br)c2[C@@H](O)[C@H]1O
3. COc1ccc(/C=C\c2cc(OC)c(OC)c(OC)c2)cc1
4. C=CC(=O)Nc1cc2c(Nc3ccc(F)c(Cl)c3)ncnc2cc1C#CC(C)(C)N1CCN(C)CC1
5. COc1cc(-c2nn(-c3cccc(NC(=O)CCN4CCN(c5ccccc5)CC4)c3)cc2-c2ccncc2)ccc1Cl

0.50
0.80
-3.82
0.45
0.99

----------
Tested on: SF-268 CNS
MEASUREMENT DESCRIPTION: NCI tumour cell line growth inhibition, 48 h; in the data active = GI50 below about 0.43 µM; inactive = the rest
Write down one outcome, taken from TRUE (active), FALSE (inactive)

- COMPOUND: "O=[N+]([O-])/C=C/c1ccc(Cl)cc1[N+](=O)[O-]"
  TESTED SYSTEM: "SF-268 CNS"
  DISCRETE LABEL: "FALSE"
- COMPOUND: "COc1ccc2c(c1OC)O/C(=C\\c1ncc([N+](=O)[O-])n1C)C2=O"
  TESTED SYSTEM: "SF-268 CNS"
  DISCRETE LABEL: "FALSE"
- COMPOUND: "COc1ccc(/C=C\\c2cc(OC)c(OC)c(OC)c2)cc1"
  TESTED SYSTEM: "SF-268 CNS"
  DISCRETE LABEL: "TRUE"
- COMPOUND: "CC1(C)C2CCC13C(=O)C1OC3(C2)C2C(=O)c3c(ccc4c3ccc3ccccc34)C(=O)C12 (stereo not given)"
  TESTED SYSTEM: "SF-268 CNS"
  DISCRETE LABEL: "FALSE"

Query compound follows.
How did this test come out for CCOc1ccc2cc(-c3nn(CC4CCNCC4)c4ncnc(N)c34)ccc2c1 ?
FALSE

----------
Please provide measured TGI for the entries that follow.
System: HCT-116 colon
MEASUREMENT DESCRIPTION: NCI tumour cell line growth inhibition, 48 h

Here's what some known entries look like.
- MOLECULE: "Cc1[nH]c(-c2ccccc2)c2nc(N(C)C)oc(=O)c12"
  TESTED SYSTEM: "HCT-116 colon"
  VALUE: "> 100 µM"
- MOLECULE: "O=C(O)CSc1n[nH]c(-c2ccco2)n1"
  TESTED SYSTEM: "HCT-116 colon"
  VALUE: "> 100 µM"
- MOLECULE: "COc1ccc(COCC[C@H](C)OC2OC(CO)C(O)C(O)C2O)cc1 (stereo not given in full)"
  TESTED SYSTEM: "HCT-116 colon"
  VALUE: "> 100 µM"
- MOLECULE: "C=C1C(=O)O[C@H]2C1C[C@H](O)[C@@]1(C)OC1CC[C@@]1(C)O[C@H]21 (stereo not given in full)"
  TESTED SYSTEM: "HCT-116 colon"
  VALUE: "30.2 µM"
- MOLECULE: "CC1=NN(c2nc(N)nc(/C(C#N)=C\\c3ccc(-c4ccc([N+](=O)[O-])cc4)o3)n2)C(C)(C)C1"
  TESTED SYSTEM: "HCT-116 colon"
  VALUE: "> 100 µM"

Field: TGI. Fill in for each record below.
1. O=C1c2c(Br)sc(Br)c2[C@@H](O)[C@H]1O
2. CC1=CCC(C(C)(C)NC(=O)c2ccccc2)C/C1=N/O (stereo not given)
3. COC(=O)[C@@](NC(=O)OCc1ccccc1)([C@H](C)O)C(F)(F)F
4. CC(=O)N1C(Nc2nccs2)CCN1c1ccccc1 (stereo not given)
5. Cn1c(=O)c2c(nc(N/N=C/c3ccccc3C(=O)O)n2C)n(C)c1=O
6. O=C1CSC(c2ccccc2O)N1c1ccc(-n2c(-c3ccccc3)nc3ccccc3c2=O)cc1 (stereo not given)
7. C[C@@H]1CC[C@H]2[C@H](C)C(OC3O[C@@H]4O[C@@]5(C)CC[C@H]6[C@H](C)CC[C@@H]([C@@H]3C)[C@@]46O5)O[C@@H]3O[C@@]4(C)CC[C@@H]1[C@]32O4 (stereo not given in full)

1. 32.4 µM
2. > 100 µM
3. > 100 µM
4. > 10 µM
5. > 100 µM
6. 35.9 µM
7. > 100 µM

Field: TGI. Fill in for each record below.
1. CC1(C)N=C(N)N=C(N)N1c1cccc(CCc2ccccc2)c1
2. C#C[C@]1(O)CC[C@H]2[C@@H]3CCc4cc(O)ccc4[C@H]3CC[C@@]21C
3. COc1cc(C2S/C(=C/c3ccccc3)C(=O)N2c2cccc(NC(C)=O)c2)cc(OC)c1OC (stereo not given)

1: > 100 µM; 2: > 100 µM; 3: 37.2 µM

Field: TGI. Fill in for each record below.
1. CCOc1ccc(NC(=O)C(=O)Nn2c(N)nnc2N)cc1
2. CCOP(=O)(O)C(Nc1ccc(N=Nc2ccccc2)cc1)c1cccc(C(Nc2ccc(N=Nc3ccccc3)cc2)P(=O)(O)OCC)c1 (stereo not given)
3. COc1ccc2c(c1)C(=O)c1c-2c(OCCN(C)C)nc2cc(OC)c(OC)cc12
4. C[As](C)SC1OCC(O)C(O)C1O (stereo not given)
5. NC(=O)[N+](=CC(=S)Nc1ccccc1Cl)C(N)=O
6. COc1cc(N(C)C)c(OC)cc1C=C1C=CC=C1

> 100 µM
> 100 µM
19.6 µM
1.37 µM
> 100 µM
> 100 µM
